The origin of these recorded values is paper PMC10454726.

# test-system: PTP1B1–400 (Homo sapiens, UniProt P18031)
# Sequence (P18031 1-400): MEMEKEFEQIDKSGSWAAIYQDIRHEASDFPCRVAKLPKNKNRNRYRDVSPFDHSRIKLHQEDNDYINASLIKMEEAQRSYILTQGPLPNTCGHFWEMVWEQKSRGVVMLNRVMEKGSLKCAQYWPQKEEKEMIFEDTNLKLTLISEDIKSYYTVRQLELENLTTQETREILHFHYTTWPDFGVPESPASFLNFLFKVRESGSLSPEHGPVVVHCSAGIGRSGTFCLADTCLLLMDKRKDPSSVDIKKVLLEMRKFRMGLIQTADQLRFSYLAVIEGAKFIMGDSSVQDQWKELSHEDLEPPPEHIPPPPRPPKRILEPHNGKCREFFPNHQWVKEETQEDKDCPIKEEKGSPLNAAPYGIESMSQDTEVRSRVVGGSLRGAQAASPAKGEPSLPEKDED
parameter: Ki (µM)
State just the number; it will be interpreted in µM.

Recorded Ki (compound `Cc1ccc(-n2ncc3c2C(C)(C)[C@@H]2CC[C@]4(C)[C@H](C(=O)C=C5[C@@H]6C[C@@](C)(C(=O)O)CC[C@]6(C)CC[C@]54C)[C@@]2(C)C3)cc1` ): 0.44

====

Listed here are compounds together with their documented AUC of the OGTT.
# System: streptozotocin-induced diabetic rats
# protocol-text: Oral glucose tolerance test in streptozotocin-induced diabetic rats
# Format: in vivo, Wistar rat
# Set-up: unit not given here
# assay-conditions: Week 7 (day 14 of treatment); same doses
# Procedure: After a week of acclimation, 35 male Wistar rats were given a single intraperitoneal dose of STZ (Sigma Chemical Co. Toluca, Estado de México, Mexico) at a dosage of 45 mg/kg of body weight, after fasting for 12 h overnight with free access to water. […] Blood glucose levels were measured using a glucometer (Accu-Chek Active, Roche, Mannheim, Germany) and reactive strips (Accu-Chek Active Glucose test strips, Roche). […]

- compound: "COc1ccc(Cl)cc1C(=O)NCCc1ccc(S(=O)(=O)NC(=O)NC2CCCCC2)cc1 [glibenclamide]"
  AUC of the OGTT: "50,874"
- compound: "C[C@H]1O[C@H](O[C@H]2[C@H](O)[C@@H](O)[C@@H](O[C@H]3[C@H](O)[C@@H](O)C(O)O[C@@H]3CO)O[C@@H]2CO)[C@H](O)[C@@H](O)[C@@H]1N[C@H]1C=C(CO)[C@@H](O)[C@H](O)[C@H]1O (some centres unmarked) [acarbose]"
  AUC of the OGTT: "71,240"
- compound: "Cc1ccc(-n2ncc3c2C(C)(C)[C@@H]2CC[C@]4(C)[C@H](C(=O)C=C5[C@@H]6C[C@@](C)(C(=O)O)CC[C@]6(C)CC[C@]54C)[C@@]2(C)C3)cc1 [FC-122]"
  AUC of the OGTT: "53,076"
- compound: "CC1(C)c2[nH]c3ccc(C(F)(F)F)cc3c2C[C@]2(C)[C@H]3C(=O)C=C4[C@@H]5C[C@@](C)(C(=O)O)CC[C@]5(C)CC[C@@]4(C)[C@]3(C)CC[C@@H]12 [FC-114]"
  AUC of the OGTT: "57,131"

// switching to the query compound
Recorded AUC of the OGTT (compound CCc1ccc(CCOc2ccc(CC3SC(=O)NC3=O)cc2)nc1 (centres unmarked) [PIO, pioglitazone] ): 40,044
